Tested on: KM12 colon
assayMethodText: NCI tumour cell line growth inhibition, 48 h
Measured TGI of individual entries

{"molecule": "Clc1ccc(OCc2nnc(CCCCCCCCc3nnc(COc4ccc(Cl)cc4)n3Nc3ccccc3)n2Nc2ccccc2)cc1", "systemUnderTest": "KM12 colon", "TGI": "36.9 µM"}
{"molecule": "FC(F)(F)c1ccc2nc3n(c2c1)C(c1c(Cl)cccc1Cl)SC3 (stereo unspecified)", "systemUnderTest": "KM12 colon", "TGI": "28.3 µM"}
{"molecule": "O=C(CSc1n[nH]c(=O)[nH]c1=O)NNC(=O)c1cccc2nc3ccccc3nc12", "systemUnderTest": "KM12 colon", "TGI": "> 100 µM"}
{"molecule": "[Cl-].[Dy+3].[O-]/N=C(\\c1ccccc1)c1ccccn1.[O-]/N=C(\\c1ccccc1)c1ccccn1.[O-]/N=C(\\c1ccccc1)c1ccccn1", "systemUnderTest": "KM12 colon", "TGI": "> 100 µM"}
{"molecule": "CC(=O)OCC(OC(C)=O)C1C[C@H]2O[C@@H]3[C@H](C[C@H]2O1)O[C@@]1(C[C@@H]3C)C[C@H](C)[C@@H]2O[C@]3(C[C@@H]2O1)C[C@H]1O[C@H]2[C@H](C)[C@H]4OC(=O)CC5CC[C@H]6OC7[C@H]8O[C@]9(CC[C@H]%10CC(O)(CO)[C@H](CC[C@H]%11C[C@@H](C)C(O)(CO)C(C[C@@H]4O[C@H]2C[C@H]1O3)O%11)O%10)CC8O[C@@H]7[C@@H](O9)[C@H]6O5 (stereo partly specified)", "systemUnderTest": "KM12 colon", "TGI": "> 0.333 µM"}
{"molecule": "N#Cc1ccc(NC(=O)Nc2ccc(Oc3ccc(NC(=O)Nc4ccc(C#N)cc4)cc3)cc2)cc1", "systemUnderTest": "KM12 colon", "TGI": "> 100 µM"}

* * *

Tested on: SW-620 colon
assayMethodText: NCI tumour cell line growth inhibition, 48 h
Measured TGI of individual entries
resultType: TGI

{"compound": "O=C1CCCCN1CCCCC#Cc1ccccc1C#Cc1ccc([N+](=O)[O-])cc1", "result": "18.3 µM"}
{"compound": "C=CCCCCCCCCC(=O)[O][Sn]([CH2]CCC)([CH2]CCC)[CH2]CCC", "result": "0.332 µM"}
{"compound": "COc1c(Br)cc(CC(N)=O)c(O)c1Br", "result": "> 100 µM"}
{"compound": "COC(=O)c1c/c(=N\\NC(=O)CC(=O)Nc2ccccc2OC)c2ccccc2o1", "result": "> 100 µM"}
{"compound": "O=C1/C(=C/c2ccccc2)CNC/C1=C\\c1ccccc1", "result": "2.11 µM"}
{"compound": "COc1ccc2c(c1)CC1=C(O2)c2ccc(OC)cc2OC1", "result": "34.6 µM"}
{"compound": "O=C1CSC(c2cccs2)N1c1nc2cc3sc(N4C(=O)CSC4c4cccs4)nc3cc2s1 (stereo unspecified)", "result": "> 50 µM"}
{"compound": "NC(N)=Nc1ncccc1[N+](=O)[O-]", "result": "> 100 µM"}
{"compound": "Cc1cc2c(cc1C)[n+](=O)c(C(=O)C/C(=N/NC(=O)CC#N)C(=O)Nc1ccccc1C(F)(F)F)c(C)n2[O-]", "result": "> 100 µM"}
{"compound": "NC1CNC(=O)c2c(Cl)sc(Cl)c21 (stereo unspecified)", "result": "> 100 µM"}
{"compound": "COc1cc(C2NC(=O)c3ccccc3N2)ccc1OCCCCCOc1c(OC)cc(C2=NOC(c3cc(OC)c(OC)c(OC)c3)C2)cc1OC (stereo unspecified)", "result": "> 100 µM"}
{"compound": "Oc1ccc2ccccc2c1N=Nc1nccs1", "result": "19.5 µM"}
{"compound": "CC/C(=C(/c1ccc(O)cc1)c1ccc(OCCNC)cc1)c1ccccc1", "result": "3.26 µM"}
{"compound": "COc1ccc(-c2cc(=O)c3c(OC)c(OC)c(OC)cc3o2)cc1", "result": "> 100 µM"}
{"compound": "O=C(Cc1ccc([N+](=O)[O-])cc1)OCC#CCOC(=O)Cc1ccc([N+](=O)[O-])cc1", "result": "> 10 µM"}
{"compound": "Cn1c2ccccc2c2c(-c3ccccc3)[n+]3ccncc3nc21", "result": "> 100 µM"}
{"compound": "CC[C@]1(O)C[C@@H]2CN(CCc3c([nH]c4ccccc34)[C@@](C(=O)OC)(c3cc4c(cc3OC)N(C)[C@H]3[C@@](O)(C(=O)OC)[C@H](OC(C)=O)[C@]5(CC)C=CCN6CC[C@]43[C@@H]65)C2)C1", "result": "> 100 µM"}
{"compound": "CCC(C(=O)c1ccc(OC)c(OC)c1)N(C(=O)C(F)(F)F)C(C)c1ccccc1 (stereo unspecified)", "result": "> 100 µM"}
{"compound": "N#CSc1c[nH]c2cccc(/C=C/C(=O)/C=C(/C=C/c3cccc4[nH]cc(SC#N)c34)OB(F)F)c12", "result": "1.33 µM"}
{"compound": "COc1cc2c(/C=C3/C(=O)Nc4ccccc43)c(Cl)[nH]c2cc1C", "result": "59 µM"}
{"compound": "CC1(CNCc2ccccc2)CC(CCc2ccccc2)N(C(=O)c2ccc([N+](=O)[O-])cc2)C1Cc1ccc(O)cc1 (stereo unspecified)", "result": "86 µM"}
{"compound": "COc1ccc(-c2cnnc3c(-c4cccc(C(F)(F)F)c4)cnn23)cc1", "result": "> 100 µM"}
{"compound": "CCC(C)C(=O)OC1CC2(C)C(c3ccoc3)OC(=O)CC23OC2(C)OC34C(OC(=O)C(C)C)C3(O)C(OC(=O)C5(C)OC5C)C5(C)CC3(O)C(C)(C5CC(=O)OC)C14O2 (stereo unspecified)", "result": "> 100 µM"}
{"compound": "Cn1c2ccccc2n2c(=O)c3cc([N+](=O)[O-])ccc3c(C#N)c12", "result": "> 100 µM"}
{"compound": "O=C(/C(Br)=C/c1ccccc1)c1ccccc1", "result": "3.9 µM"}
{"compound": "O=C1CCC2(c3ccc(F)cc3)Nc3cc(Cl)ccc3N12 (stereo unspecified)", "result": "> 100 µM"}
{"compound": "O=C(CC1=NCCN1)c1ccccc1", "result": "> 750 µM"}
{"compound": "O=C(Cc1ccccc1)NN1C(=O)/C(=C\\c2ccc([N+](=O)[O-])cc2)SC1=Nc1ccccc1", "result": "> 100 µM"}
{"compound": "Cc1nc(C)c(Cc2ccccc2)o1", "result": "> 100 µM"}
{"compound": "O=C1C2c3[nH]c4ccccc4c3C3CCCCCCC3C2C(=O)N1c1ccccc1 (stereo unspecified)", "result": "29.8 µM"}
{"compound": "CC(C)(C)[Si](C)(C)OCC1OC(n2cnc3c(N)ncnc32)C(O[Si](C)(C)C(C)(C)C)C1O[Si](C)(C)C(C)(C)C (stereo unspecified)", "result": "> 100 µM"}
{"compound": "O=c1c2cc([N+](=O)[O-])ccc2sc2ccsc12", "result": "> 100 µM"}
{"compound": "OCc1c[nH]c2ccccc12", "result": "36.8 µM"}
{"compound": "O=C1NC2OC(CO)C(O)C(O1)C2O (stereo unspecified)", "result": "> 100 µM"}
{"compound": "c1ccc2c3c(c(N4CCOCC4)nc2c1)CCCC3", "result": "> 100 µM"}
{"compound": "COC(=O)/C=C/c1cc(OC)c(OC)c(OC)c1", "result": "> 100 µM"}
{"compound": "O=C(/C=C/c1c(O)ccc2ccccc12)c1cccc(O)c1", "result": "> 100 µM"}
{"compound": "COc1cc(C2=NOC(c3cc(OC)c(OC)c(OC)c3)C2)ccc1OCCCCOc1cc2c(cc1OC)C(=O)N1CCC[C@H]1C=N2 (stereo partly specified)", "result": "0.855 µM"}
{"compound": "CCCCN=C(NC#N)NCCCC", "result": "42 µM"}
{"compound": "COc1ccc(C2=CC3CCC2C3)cc1 (stereo unspecified)", "result": "> 100 µM"}
{"compound": "N#Cc1c(-c2ccc(F)cc2)nc(N/N=C/c2c[nH]c3ccccc23)nc1N1CCOCC1", "result": "4.69 µM"}
